# Assay Target: SHP2-C SH2;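 further: peptide library displayed on the E. coli surface as eCPX fusions, selected cells deep-sequenced, score is each peptide's frequency after selection divided by its frequency in the input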
# Assay Summary: SH2 binding enrichment of the phosphorylated peptide, bacterial display (enrichment ratio); higher = better substrate or ligand; peptides without Tyr show the background
Readout Name: SH2 binding enrichment
# output: bare number, no unit

Would you please look over these solved cases?
SPLTDYSPQLQ [OTC_Y345_L341P]	0.712
QVQQIYSDSDL [MIB1_Y376_R371Q]	0.836

Requested read-out: SH2 binding enrichment. Entry: VFLGAYDHFLP [SLC22A5_Y486_R488H_YF]
1

Requested read-out: SH2 binding enrichment. Entry: MIRSAYALGGL [CPS1_Y590]
0.689

Requested read-out: SH2 binding enrichment. Entry: CSKRFYQLTKL [AR_Y858_R855K]
0.874

Requested read-out: SH2 binding enrichment. Entry: ELTAKYLNYYQ [P3H4_Y181]
1.03

Requested read-out: SH2 binding enrichment. Entry: KQFWRYFAGNL [SLC25A4_Y112]
0.972

Requested read-out: SH2 binding enrichment. Entry: QLHEHYKIHKE [NSMAF_Y626]
0.747

Requested read-out: SH2 binding enrichment. Entry: SIDLGYHKDLQ [NF1_Y1169_G1166D]
0.486

Requested read-out: SH2 binding enrichment. Entry: FHLGKYLQEVL [KLB_Y910_Y906H_YF]
0.935

Requested read-out: SH2 binding enrichment. Entry: AVLQPYIFVAT [CFTR_Y1014]
0.545
